The measurements presented in this section are drawn from patent US20160237119A1.

- target: T1, c-Met-Fc chimera protein (UniProt P08581 25-932, limits assumed)
- T1 construct: Captured on the SPR chip by an anti-IgG antibody; not shown: Fc part
- T1 sequence (P08581 25-932 limits assumed, change not shown): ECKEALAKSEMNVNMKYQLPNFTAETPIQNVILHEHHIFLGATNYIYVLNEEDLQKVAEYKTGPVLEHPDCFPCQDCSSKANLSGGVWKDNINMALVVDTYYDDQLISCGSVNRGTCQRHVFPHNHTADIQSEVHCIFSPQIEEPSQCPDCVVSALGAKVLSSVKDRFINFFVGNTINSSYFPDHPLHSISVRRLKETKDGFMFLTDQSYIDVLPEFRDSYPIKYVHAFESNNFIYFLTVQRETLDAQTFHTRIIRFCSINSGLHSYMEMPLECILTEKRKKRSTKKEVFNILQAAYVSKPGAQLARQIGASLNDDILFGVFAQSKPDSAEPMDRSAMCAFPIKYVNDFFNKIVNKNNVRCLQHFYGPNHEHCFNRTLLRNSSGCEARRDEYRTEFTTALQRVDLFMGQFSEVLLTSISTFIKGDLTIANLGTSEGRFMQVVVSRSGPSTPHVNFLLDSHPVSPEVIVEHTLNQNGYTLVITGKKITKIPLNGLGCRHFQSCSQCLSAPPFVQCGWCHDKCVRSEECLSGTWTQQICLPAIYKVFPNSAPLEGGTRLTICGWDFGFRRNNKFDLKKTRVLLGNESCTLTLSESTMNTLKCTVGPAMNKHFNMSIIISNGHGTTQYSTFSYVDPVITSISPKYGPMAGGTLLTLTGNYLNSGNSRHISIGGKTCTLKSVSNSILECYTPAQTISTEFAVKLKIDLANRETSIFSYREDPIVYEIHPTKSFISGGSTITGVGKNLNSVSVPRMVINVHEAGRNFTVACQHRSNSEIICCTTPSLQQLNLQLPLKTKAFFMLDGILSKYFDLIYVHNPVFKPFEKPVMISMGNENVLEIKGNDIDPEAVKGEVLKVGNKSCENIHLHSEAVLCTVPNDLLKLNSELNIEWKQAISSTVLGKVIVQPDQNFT
- assay explanation: SPR (Biacore), c-Met-Fc captured by anti-IgG on CM5, single-cycle kinetics
Bridges are numbered along the chain shown (N, C = ends). Roman numbers before positions name the chains, in order. Where no end group is shown, it is not given here. [ ]: non-standard residue; d: D form. NMeR = CN[C@@H](CCCNC(=N)N)C(=O)O; NMeC = CN[C@@H](CS)C(=O)O
recorded endpoint: koff (s⁻¹)
Just the number please, in s⁻¹, no unit attached.

In the examples that follow, each entry is paired with its recorded koff.
binder	koff / s⁻¹
{CH2CO}-YRQFN[NMeR]RTHEVWNLD[NMeC]GC(Bis‑MAL‑PEG11) (thioether N-16; also: dimer via Bis-MAL-PEG11, also called D4-3NMe Bis-MAL-PEG11; dimerized N-methylated D4-3 peptide) [D4-3NMe dimeric peptide, linker Bis-MAL-PEG11]	0.0004
{CH2CO}-YRQFNRRTHEVWNLDCG (thioether N-16; not fully specified, also called D4-3 peptide; D4-3 Monomer) [D4-3]	0.008
{CH2CO}-YRQFN[NMeR]RTHEVWNLD[NMeC]G (thioether N-16, also called NMe (N6 + N16); N-methylated D4-3) [D4-3NMe]	0.0021
{CH2CO}-YISWNEFNSPNWRFITCG (thioether N-17, also called L5-2 peptide; L5-2 Monomer) [L5-2]	0.012
D5-4 dimeric peptide, linker Bis-MAL-PEG11 (thioether I:N-I:15, II:N-II:15 via Ac; not fully specified (N-terminus, bridges); also: dimer: two copies joined by Bis-MAL-PEG11 through an added C-terminal Cys (handle not in letters), Two macrocyclic peptides joined through their C-terminal Cys by Bis-MAL-PEG11; also called D5-4 Bis-MAL-PEG11; not shown: C-terminal handle of each copy (spacer residue plus Cys)) peptide 1: [dY]WYYAWDQTYKAFPCG peptide 2: [dY]WYYAWDQTYKAFPCG	0.011
D5-4 dimeric peptide, linker Bis-MAL-PEG3 (thioether I:N-I:15, II:N-II:15 via Ac; not fully specified (N-terminus, bridges); also: dimer: two copies joined by Bis-MAL-PEG3 through an added C-terminal Cys (handle not in letters), Two macrocyclic peptides joined through their C-terminal Cys by Bis-MAL-PEG3; also called D5-4 Bis-MAL-PEG3; not shown: C-terminal handle of each copy (spacer residue plus Cys)) peptide 1: [dY]WYYAWDQTYKAFPCG peptide 2: [dY]WYYAWDQTYKAFPCG	0.00054

Read the entry {CH2CO}-[dY]WYYAWDQTYKAFPCG (thioether N-15, also called D5-4 peptide; D5-4 Monomer) [D5-4] and write its reported koff.
0.021

Read the entry {CH2CO}-YRQFNRRTHEVWNLDCGC(Bis‑MAL‑PEG11) (thioether N-16; not fully specified (residue 1); also: dimer: two copies joined by Bis-MAL-PEG11 at Cys18, Two macrocyclic peptides joined through their C-terminal Cys by Bis-MAL-PEG11; also called D4-3 Bis-MAL-PEG11) [D4-3 dimeric peptide, linker Bis-MAL-PEG11] and write its reported koff.
0.0011
